For each of the compounds below, state its GI50.
System: U251
ASSAY_OVERVIEW: SRB anticancer assay, CNS
Format: cell-based, human
CONDITION_DETAILS: Homo sapiens, U-251; U251, 48 h
Answers are plain numbers, in µM.

Worked examples, 2 compounds total:
| COMPOUND | GI50, µM |
| --- | --- |
| COc1cc(OC)cc(-c2cncn2-c2ccc(-c3nc4cc(OC)c(OC)c(OC)c4s3)cc2)c1 [Compound 7d] | 5.44 |
| COc1cc(OC)c2sc(-c3ccc(-n4cncc4-c4ccc(OC)c(OC)c4)cc3)nc2c1 [Compound 6e] | 9.19 |

Please state, for each entry, its recorded GI50.
1. COc1cc2nc(-c3ccc(-n4cncc4-c4ccc(N)cc4)cc3)sc2c(OC)c1OC [Compound 7h]
2. COc1cc(OC)c2sc(-c3ccc(-n4cncc4-c4cc(OC)c(OC)c(OC)c4)cc3)nc2c1 [Compound 6f]

3.84
4.15

// input: 2 compounds below; output: GI50 for each
1. COc1ccc(-c2cncn2-c2ccc(-c3nc4cc(OC)c(OC)c(OC)c4s3)cc2)cc1N [Compound 7j]
2. COc1cc(OC)cc(-c2cncn2-c2ccc(-c3nc4cc(OC)cc(OC)c4s3)cc2)c1 [Compound 6d]

1. 6
2. 4.76

###

Hi there, I'd appreciate the recorded Log10GI50 for every entry that follows.
Tested on: DU-145
ASSAY_OVERVIEW: SRB anticancer assay, prostate
Assay type: cell-based, human
Parameters: unit not given here
CONDITION_DETAILS: DU-145; present compounds

Check out these entries, answers already filled in.
| MOL_SMILES | ASSAYED_TARGET | Log10GI50 |
| --- | --- | --- |
| COc1cc(-c2cncn2-c2ccc(-c3nc4ccc(F)cc4s3)cc2)ccc1F | DU-145 | −4.85 |
| COc1cc(OC)cc(-c2cncn2-c2ccc(-c3nc4cc(OC)c(OC)c(OC)c4s3)cc2)c1 | DU-145 | −4.51 |
| COc1ccc(-c2cncn2-c2ccc(-c3nc4cc(OC)c(OC)c(OC)c4s3)cc2)cc1N | DU-145 | −5.20 |

For record COc1cc2nc(-c3ccc(-n4cncc4-c4ccc(N)cc4)cc3)sc2c(OC)c1OC the listed Log10GI50 is −5.04

###

System: K562 (Leukemia) cells
ASSAY_OVERVIEW: Cell cycle distribution by flow cytometry
Assay type: cell-based
QUANTITY_KIND: cells in G2/M phase (%)
Answers are plain numbers, in %.

| COMPOUND | RECORDED_NUMBER |
| --- | --- |
| COc1cc(OC)c2sc(-c3ccc(-n4cncc4-c4cc(OC)c(OC)c(OC)c4)cc3)nc2c1 | 14 |
| Nc1ccc(-c2nc3ccc(F)cc3s2)cc1 [Compound 21a] | 14 |
| COc1ccc(/C=C\c2cc(OC)c(OC)c(OC)c2)cc1O [CA-4, Combretastatin A-4, reference compound] | 1.72 |
| COc1cc(OC)cc(-c2cncn2-c2ccc(-c3nc4cc(OC)cc(OC)c4s3)cc2)c1 | 12 |
| COc1cc(OC)c2sc(-c3ccc(-n4cncc4-c4ccc(OC)c(OC)c4)cc3)nc2c1 | 14 |
| COc1cc(OC)cc(-c2cncn2-c2ccc(-c3nc4cc(OC)c(OC)c(OC)c4s3)cc2)c1 | 16 |

Provide the reported cells in G2/M phase of each entry below, same order.
1. COc1ccc(-c2cncn2-c2ccc(-c3nc4cc(OC)c(OC)c(OC)c4s3)cc2)cc1N
2. COc1cc(-c2cncn2-c2ccc(-c3nc4ccc(F)cc4s3)cc2)ccc1F
3. COc1cc2nc(-c3ccc(N)cc3)sc2c(OC)c1OC [Compound 21d]
4. COc1cc2nc(-c3ccc(-n4cncc4-c4ccc(N)cc4)cc3)sc2c(OC)c1OC

12
14
12
16

###

Field: GI50. Provide a value for each of the compounds that follow.
Test system: CCRF-CEM
ASSAY_OVERVIEW: SRB anticancer assay, leukemia
Format: cell-based, human
CONDITION_DETAILS: Homo sapiens, 48 h
Numbers only, in µM.

| COMPOUND | RECORDED_NUMBER |
| --- | --- |
| COc1cc(-c2cncn2-c2ccc(-c3nc4ccc(F)cc4s3)cc2)ccc1F [Compound 4c] | 6.92 |
| COc1cc(OC)c2sc(-c3ccc(-n4cncc4-c4cc(OC)c(OC)c(OC)c4)cc3)nc2c1 [Compound 6f] | 3.95 |

So, COc1ccc(-c2cncn2-c2ccc(-c3nc4cc(OC)c(OC)c(OC)c4s3)cc2)cc1N [Compound 7j] ? Its GI50 was 3.41

###

Please go through the items and note down their GI50.
Test system: KM12
ASSAY_OVERVIEW: SRB anticancer assay, colon
Format: cell-based, human
CONDITION_DETAILS: Homo sapiens, KM12, 48 h
Provide the measurement as a number trailed by its unit.

| MOLECULE | GI50 |
| --- | --- |
| COc1cc(OC)cc(-c2cncn2-c2ccc(-c3nc4cc(OC)c(OC)c(OC)c4s3)cc2)c1 [Compound 7d] | 5.54 µM |
| COc1cc(-c2cncn2-c2ccc(-c3nc4ccc(F)cc4s3)cc2)ccc1F [Compound 4c] | 6.4 µM |
| COc1ccc(-c2cncn2-c2ccc(-c3nc4cc(OC)c(OC)c(OC)c4s3)cc2)cc1N [Compound 7j] | 3.8 µM |
| COc1cc(OC)cc(-c2cncn2-c2ccc(-c3nc4cc(OC)cc(OC)c4s3)cc2)c1 [Compound 6d] | 4.52 µM |
| COc1cc(OC)c2sc(-c3ccc(-n4cncc4-c4ccc(OC)c(OC)c4)cc3)nc2c1 [Compound 6e] | 6.8 µM |

Note: attention shifts to another entry.
For COc1cc(OC)c2sc(-c3ccc(-n4cncc4-c4cc(OC)c(OC)c(OC)c4)cc3)nc2c1 [Compound 6f] the molecule record lists GI50 as 4.62 µM

###

For each entry below, report its GI50 value.
Test system: MOLT-4
ASSAY_OVERVIEW: SRB anticancer assay, leukemia
Format: cell-based, human
CONDITION_DETAILS: Homo sapiens, MOLT-4, 48 h
Answers are plain numbers, in µM.

Here is how some molecules turned out for GI50.
| MOL_SMILES | ASSAYED_TARGET | UNIT_NAME | RECORDED_NUMBER |
| --- | --- | --- | --- |
| COc1cc(OC)cc(-c2cncn2-c2ccc(-c3nc4cc(OC)c(OC)c(OC)c4s3)cc2)c1 | MOLT-4 | µM | 4.11 |
| COc1ccc(-c2cncn2-c2ccc(-c3nc4cc(OC)c(OC)c(OC)c4s3)cc2)cc1N | MOLT-4 | µM | 4 |
| COc1cc(-c2cncn2-c2ccc(-c3nc4ccc(F)cc4s3)cc2)ccc1F | MOLT-4 | µM | 3.41 |

Turning now to a further molecule:
# molecule COc1cc(OC)c2sc(-c3ccc(-n4cncc4-c4cc(OC)c(OC)c(OC)c4)cc3)nc2c1 ; its GI50 = 4.24

###

Tested on: OVCAR-3
ASSAY_OVERVIEW: SRB anticancer assay, ovarian
Format: cell-based, human
Design: unit not given here
CONDITION_DETAILS: OVCAR-3; present compounds
Would you kindly list Log10GI50 for each of these compounds?
Numbers only.

| MOL_SMILES | RECORDED_NUMBER |
| --- | --- |
| COc1ccc(-c2cncn2-c2ccc(-c3nc4cc(OC)c(OC)c(OC)c4s3)cc2)cc1N | −5.29 |
| COc1cc(-c2cncn2-c2ccc(-c3nc4ccc(F)cc4s3)cc2)ccc1F | −5.24 |
| COc1cc2nc(-c3ccc(-n4cncc4-c4ccc(N)cc4)cc3)sc2c(OC)c1OC | −5.56 |

The compound COc1cc(OC)cc(-c2cncn2-c2ccc(-c3nc4cc(OC)c(OC)c(OC)c4s3)cc2)c1 showed Log10GI50 equal to −5.22

###

System: MCF-7 (Breast carcinoma) cells
ASSAY_OVERVIEW: Cell cycle distribution by flow cytometry (FACS)
Type: cell-based
CONDITION_DETAILS: MCF-7 cells, 2 μM, 24h
Would you kindly list cells in G2/M phase for each of these compounds?
Answers are plain numbers, in %.

Recorded results for 8 compounds are shown here.
| COMPOUND | QUANTITY_KIND | RECORDED_NUMBER |
| --- | --- | --- |
| COc1cc(OC)c2sc(-c3ccc(-n4cncc4-c4ccc(OC)c(OC)c4)cc3)nc2c1 [Compound 6e] | cells in G2/M phase | 21 |
| COc1ccc(/C=C\c2cc(OC)c(OC)c(OC)c2)cc1O [CA-4, Combretastatin A-4, reference compound] | cells in G2/M phase | 49.63 |
| COc1cc(-c2cncn2-c2ccc(-c3nc4ccc(F)cc4s3)cc2)ccc1F [Compound 4c] | cells in G2/M phase | 18 |
| COc1cc(OC)cc(-c2cncn2-c2ccc(-c3nc4cc(OC)c(OC)c(OC)c4s3)cc2)c1 [Compound 7d] | cells in G2/M phase | 24 |
| Nc1ccc(-c2nc3ccc(F)cc3s2)cc1 [Compound 21a] | cells in G2/M phase | 21 |
| COc1cc2nc(-c3ccc(-n4cncc4-c4ccc(N)cc4)cc3)sc2c(OC)c1OC [Compound 7h] | cells in G2/M phase | 23 |
| COc1cc(OC)cc(-c2cncn2-c2ccc(-c3nc4cc(OC)cc(OC)c4s3)cc2)c1 [Compound 6d] | cells in G2/M phase | 21 |
| COc1cc(OC)c2sc(-c3ccc(-n4cncc4-c4cc(OC)c(OC)c(OC)c4)cc3)nc2c1 [Compound 6f] | cells in G2/M phase | 21 |

Batch request: cells in G2/M phase for each of the following compounds.
1. COc1cc2nc(-c3ccc(N)cc3)sc2c(OC)c1OC [Compound 21d]
2. COc1ccc(-c2cncn2-c2ccc(-c3nc4cc(OC)c(OC)c(OC)c4s3)cc2)cc1N [Compound 7j]

1. 20
2. 23
